# System: HeLa
# assay_protocol: Cytotoxicity against human HeLa cells after 48 hrs by MTT assay
# Assay type: functional, cell-based
Counter-ions that a name gives are not always drawn.
Reported IC50 by item:
Only the number, expressed in µM, is required.

- CC[C@@]1(O)C(=O)OCc2c1cc1n(c2=O)Cc2cc3ccccc3nc2-1 [CAMPTOTHECIN]: 0.86
- O=c1c2ccc3ccccc3c2oc2cc(OCC3CS3)cc(OCC3CS3)c12 (stereo not given): 25.6
- COc1cccc2c1C(=O)c1c(O)c3c(c(O)c1C2=O)C[C@@](O)(C(=O)CO)C[C@@H]3O[C@H]1C[C@H](N)[C@H](O)[C@H](C)O1 [DOXORUBICIN HYDROCHLORIDE]: 0.71
- O=c1c2cc3ccccc3cc2oc2cc(OCC3CS3)cc(OCC3CS3)c12 (stereo not given): 8.01
- O=c1c2ccc3ccccc3c2oc2cc(OCC3CO3)cc(OCC3CO3)c12 (stereo not given): 24.2

Prompt: Given the entry O=c1c2cc3ccccc3cc2oc2cc(OCC3CO3)cc(OCC3CO3)c12 (stereo not given) , report its measured IC50.
Response: 2.19

Prompt: Field request: IC50 | item: O=c1c2c(OCC3CS3)cc(OCC3CS3)cc2oc2ccc3ccccc3c12 (stereo not given)
Response: 24.9

Prompt: Which value of IC50 has been reported for O=c1c2c(OCC3CO3)cc(OCC3CO3)cc2oc2ccc3ccccc3c12 (stereo not given) in the records?
Response: 10.2

Prompt: Give the measured IC50 of COc1cc([C@@H]2c3cc4c(cc3[C@@H](O[C@@H]3O[C@@H]5CO[C@@H](C)O[C@H]5[C@H](O)[C@H]3O)[C@H]3COC(=O)[C@H]23)OCO4)cc(OC)c1O [ETOPOSIDE] .
Response: 0.47

Prompt: # input compound: O=c1c2cc3ccccc3cc2oc2cc(OCC3CS3)cc(O)c12 (stereo not given) ; wanted: its IC50
Response: 8.52

* * *

# Tested on: HT-29
# assay_protocol: Cytotoxicity against human HT-29 cells after 48 hrs […]
# Type: functional, cell-based
# particulars: HT-29, 48 h
quantity_name: pIC50
Keep in mind that pIC50 stands for -log10 of concentration in molar terms.

- O=c1c2cc3ccccc3cc2oc2cc(OCC3CS3)cc(OCC3CS3)c12 (centres undefined): 5.78

As a next step, examine the compound that follows.
Prompt: Form entry - test system: HT-29; read-out: pIC50; compound: O=c1c2c(O)cc(OCC3CS3)cc2oc2ccc3ccccc3c12 (centres undefined)
Response: 5.45

* * *

# assayed_system: UniProt:P11388
# assay_protocol: Inhibition of human recombinant DNA topoisomerase 2alpha -mediated pBR322 DNA relaxation at 20 uM by gel electrophoresis
quantity_name: inhibition (%)
API: value field is a number in %; no unit string.

Below: 3 molecules and their reported inhibition.
- O=c1c2ccc3ccccc3c2oc2cc(OCC3CO3)cc(OCC3CO3)c12 (configuration not stated): 0.1
- O=c1c2cc3ccccc3cc2oc2cc(OCC3CS3)cc(OCC3CS3)c12 (configuration not stated): 13.5
- O=c1c2c(O)cc(OCC3CO3)cc2oc2ccc3ccccc3c12 (configuration not stated): -0

Prompt: Looking for the measured inhibition of O=c1c2ccc3ccccc3c2oc2cc(OCC3CS3)cc(OCC3CS3)c12 (configuration not stated) , can you help?
Response: 72.7

Prompt: Record request: inhibition value, item O=c1c2cc3ccccc3cc2oc2cc(OCC3CO3)cc(OCC3CO3)c12 (configuration not stated)
Response: 8.9

Prompt: Value lookup for inhibition; key = O=c1c2cc3ccccc3cc2oc2cc(OCC3CS3)cc(O)c12 (configuration not stated)
Response: 7.2

Prompt: So what's the measured inhibition for this one? O=c1c2ccc3ccccc3c2oc2cc(OCC3CS3)cc(O)c12 (configuration not stated)
Response: -0

Prompt: Given the molecule O=c1c2c(OCC3CS3)cc(OCC3CS3)cc2oc2ccc3ccccc3c12 (configuration not stated) , what is its reported inhibition?
Response: 8.4

* * *

# assayed_system: DNA topoisomerase 2-alpha (Homo sapiens) (UniProt P11388)
# Sequence (P11388 whole entry): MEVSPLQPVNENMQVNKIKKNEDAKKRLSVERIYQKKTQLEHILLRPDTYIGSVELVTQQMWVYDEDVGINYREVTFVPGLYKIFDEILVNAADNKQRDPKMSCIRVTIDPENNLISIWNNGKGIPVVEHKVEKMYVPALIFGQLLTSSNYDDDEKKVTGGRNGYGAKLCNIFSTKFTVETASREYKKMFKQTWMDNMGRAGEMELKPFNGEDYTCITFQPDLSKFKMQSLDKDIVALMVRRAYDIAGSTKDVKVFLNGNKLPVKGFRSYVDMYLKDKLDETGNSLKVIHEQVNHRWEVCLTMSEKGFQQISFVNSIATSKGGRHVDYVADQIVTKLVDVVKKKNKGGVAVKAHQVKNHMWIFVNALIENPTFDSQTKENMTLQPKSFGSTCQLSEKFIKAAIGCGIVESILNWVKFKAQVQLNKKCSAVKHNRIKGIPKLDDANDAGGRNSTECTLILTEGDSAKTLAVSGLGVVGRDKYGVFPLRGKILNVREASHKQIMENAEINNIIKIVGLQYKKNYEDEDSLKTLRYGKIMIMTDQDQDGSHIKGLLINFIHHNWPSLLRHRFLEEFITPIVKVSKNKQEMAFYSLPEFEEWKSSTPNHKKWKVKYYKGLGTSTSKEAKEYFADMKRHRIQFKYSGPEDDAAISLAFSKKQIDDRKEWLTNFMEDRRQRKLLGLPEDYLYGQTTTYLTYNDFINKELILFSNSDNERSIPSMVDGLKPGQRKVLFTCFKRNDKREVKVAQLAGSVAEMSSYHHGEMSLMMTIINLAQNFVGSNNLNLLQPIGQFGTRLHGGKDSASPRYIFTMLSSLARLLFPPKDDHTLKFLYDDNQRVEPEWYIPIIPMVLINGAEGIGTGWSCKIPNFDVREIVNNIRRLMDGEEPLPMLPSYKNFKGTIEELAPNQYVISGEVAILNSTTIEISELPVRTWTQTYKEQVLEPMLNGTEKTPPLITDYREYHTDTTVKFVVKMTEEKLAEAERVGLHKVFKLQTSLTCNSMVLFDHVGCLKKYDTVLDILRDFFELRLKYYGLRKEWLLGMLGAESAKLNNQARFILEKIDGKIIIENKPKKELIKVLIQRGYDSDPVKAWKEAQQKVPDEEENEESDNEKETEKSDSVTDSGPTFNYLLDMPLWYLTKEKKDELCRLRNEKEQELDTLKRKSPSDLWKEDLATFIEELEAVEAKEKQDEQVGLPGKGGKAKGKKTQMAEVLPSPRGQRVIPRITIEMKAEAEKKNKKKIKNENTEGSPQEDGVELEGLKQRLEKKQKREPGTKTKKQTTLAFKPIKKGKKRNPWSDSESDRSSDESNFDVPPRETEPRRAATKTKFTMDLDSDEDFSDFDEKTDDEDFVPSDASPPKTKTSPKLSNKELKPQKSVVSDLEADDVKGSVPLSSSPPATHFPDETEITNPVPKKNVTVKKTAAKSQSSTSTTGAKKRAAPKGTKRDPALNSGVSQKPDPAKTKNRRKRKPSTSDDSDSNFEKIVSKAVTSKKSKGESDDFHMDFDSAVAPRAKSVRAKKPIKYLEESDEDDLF
# assay_protocol: Inhibition of human recombinant DNA topoisomerase 2alpha -mediated pBR322 DNA relaxation at 100 uM by gel electrophoresis
Entries and their measured inhibition follow.
Numeric answer only, unit % assumed.

Worked examples follow.
* O=c1c2c(OCC3CS3)cc(OCC3CS3)cc2oc2ccc3ccccc3c12 (stereo unspecified) | 4.4
* O=c1c2cc3ccccc3cc2oc2cc(OCC3CS3)cc(O)c12 (stereo unspecified) | -0
* O=c1c2ccc3ccccc3c2oc2cc(OCC3CO3)cc(OCC3CO3)c12 (stereo unspecified) | 5.7
* O=c1c2ccc3ccccc3c2oc2cc(OCC3CS3)cc(OCC3CS3)c12 (stereo unspecified) | 71.9
* O=c1c2ccc3ccccc3c2oc2cc(OCC3CO3)cc(O)c12 (stereo unspecified) | 9

Continue with the compound presented below.
Prompt: Would you kindly share the measured inhibition for O=c1c2c(O)cc(OCC3CO3)cc2oc2ccc3ccccc3c12 (stereo unspecified) ?
Response: 3.7

* * *

# Test system: HT-29
# assay_protocol: Cytotoxicity against human HT-29 cells after 48 hrs […]
# Format: functional, cell-based
# particulars: HT-29, 48 h
# strict inequality: IC50 < 1000 nM yields MET, everything else yields NOT MET

Check out these entries, answers already filled in.
- O=c1c2ccc3ccccc3c2oc2cc(OCC3CS3)cc(OCC3CS3)c12 (stereo unspecified): NOT MET
- O=c1c2c(OCC3CO3)cc(OCC3CO3)cc2oc2ccc3ccccc3c12 (stereo unspecified): NOT MET
- O=c1c2ccc3ccccc3c2oc2cc(OCC3CO3)cc(O)c12 (stereo unspecified): NOT MET

Prompt: Given the entry COc1cc([C@@H]2c3cc4c(cc3[C@@H](O[C@@H]3O[C@@H]5CO[C@@H](C)O[C@H]5[C@H](O)[C@H]3O)[C@H]3COC(=O)[C@H]23)OCO4)cc(OC)c1O [ETOPOSIDE] , would its reported IC50 be below 1000 nM?
Response: NOT MET

Prompt: Quick check: IC50 of O=c1c2c(OCC3CS3)cc(OCC3CS3)cc2oc2ccc3ccccc3c12 (stereo unspecified) under 1000 nM?
Response: MET

Prompt: In plain terms, does O=c1c2c(O)cc(OCC3CO3)cc2oc2ccc3ccccc3c12 (stereo unspecified) come in under 1000 nM for IC50?
Response: MET

* * *

Listing of entries alongside the reported IC50.
# System: HeLa
# assay_protocol: Cytotoxicity against human HeLa cells after 48 hrs by MTT assay
# Type: functional, cell-based

* O=c1c2c(O)cc(OCC3CS3)cc2oc2ccc3ccccc3c12 (stereo not given) | > 100 µM
* O=c1c2c(O)cc(OCC3CO3)cc2oc2ccc3ccccc3c12 (stereo not given) | > 100 µM
* O=c1c2ccc3ccccc3c2oc2cc(OCC3CO3)cc(O)c12 (stereo not given) | > 50 µM
* O=c1c2ccc3ccccc3c2oc2cc(OCC3CS3)cc(O)c12 (stereo not given) | > 50 µM

Here is the next item to consider.
Prompt: Given the compound O=c1c2cc3ccccc3cc2oc2cc(OCC3CO3)cc(O)c12 (stereo not given) , what is its reported IC50?
Response: > 100 µM

* * *

# System: HT-29
# assay_protocol: Cytotoxicity against human HT-29 cells after 48 hrs […]
# Type: functional, cell-based
# particulars: HT-29, 48 h
Structures can show the parent of a compound that is named as a salt.
Listed here: items and their measured IC50.
Unit nM implied. Number only.

* O=c1c2cc3ccccc3cc2oc2cc(OCC3CO3)cc(O)c12 (configuration not stated) | 2340
* O=c1c2ccc3ccccc3c2oc2cc(OCC3CO3)cc(OCC3CO3)c12 (configuration not stated) | 8200
* O=c1c2cc3ccccc3cc2oc2cc(OCC3CO3)cc(OCC3CO3)c12 (configuration not stated) | 600
* CC[C@@]1(O)C(=O)OCc2c1cc1n(c2=O)Cc2cc3ccccc3nc2-1 | 850
* O=c1c2cc3ccccc3cc2oc2cc(OCC3CS3)cc(O)c12 (configuration not stated) | 5400

Now look at this one.
Prompt: I would be grateful if you could share the reported IC50 for COc1cccc2c1C(=O)c1c(O)c3c(c(O)c1C2=O)C[C@@](O)(C(=O)CO)C[C@@H]3O[C@H]1C[C@H](N)[C@H](O)[C@H](C)O1 [DOXORUBICIN HYDROCHLORIDE] .
Response: 950

* * *

# assayed_system: DNA topoisomerase 2-alpha (Homo sapiens) (UniProt P11388)
# assay_protocol: Inhibition of human recombinant DNA topoisomerase 2alpha -mediated pBR322 DNA relaxation at 20 uM by gel electrophoresis
Reported inhibition by item:
Report as a plain number; the unit % is understood.

Study these solved cases before continuing.
• O=c1c2c(O)cc(OCC3CS3)cc2oc2ccc3ccccc3c12 (centres undefined) = -0
• O=c1c2ccc3ccccc3c2oc2cc(OCC3CO3)cc(O)c12 (centres undefined) = 5.5
• O=c1c2c(OCC3CO3)cc(OCC3CO3)cc2oc2ccc3ccccc3c12 (centres undefined) = -0

Now examine the next entry.
Prompt: inhibition lookup needed for O=c1c2cc3ccccc3cc2oc2cc(OCC3CO3)cc(O)c12 (centres undefined) , thanks.
Response: -0
